Origin of measurements: patent US20120071475A1

Subject Of Test: PI3Kγ (Homo sapiens)
Experimental Details: PI3Kγ inhibitory activity (PI3-kinase HTRF assay, inhibition ratio)
Type: biochemical
Condition Info: 0.5 h, compound at 10 μmol/L; read-out: PI3Kg Inhibition Ratio % (10 μM)
Measured Attribute: inhibition at 10 µM

COc1cc(N2CCc3nc(NC(=O)Nc4cnccc4C(=O)NC(C)C)sc3C2)nc(OC)n1 [Compound I-27] : ≥ 95%
COC(=O)c1sccc1NC(=O)Nc1nc2c(s1)CN(c1cc(OC)nc(OC)n1)CC2 [Compound I-2] : 69%

Below: the item to evaluate.
*Q* Give its inhibition at 10 µM value. Item: COc1cc(N2CCc3nc(NC(=O)Nc4ccccc4C4=NC(C)(C)CO4)sc3C2)nc(OC)n1 [Compound I-14]
*A* 94%

----------
Subject Of Test: PI3Kα (Homo sapiens, UniProt P42336)
Sequence (P42336 whole entry, species assumed): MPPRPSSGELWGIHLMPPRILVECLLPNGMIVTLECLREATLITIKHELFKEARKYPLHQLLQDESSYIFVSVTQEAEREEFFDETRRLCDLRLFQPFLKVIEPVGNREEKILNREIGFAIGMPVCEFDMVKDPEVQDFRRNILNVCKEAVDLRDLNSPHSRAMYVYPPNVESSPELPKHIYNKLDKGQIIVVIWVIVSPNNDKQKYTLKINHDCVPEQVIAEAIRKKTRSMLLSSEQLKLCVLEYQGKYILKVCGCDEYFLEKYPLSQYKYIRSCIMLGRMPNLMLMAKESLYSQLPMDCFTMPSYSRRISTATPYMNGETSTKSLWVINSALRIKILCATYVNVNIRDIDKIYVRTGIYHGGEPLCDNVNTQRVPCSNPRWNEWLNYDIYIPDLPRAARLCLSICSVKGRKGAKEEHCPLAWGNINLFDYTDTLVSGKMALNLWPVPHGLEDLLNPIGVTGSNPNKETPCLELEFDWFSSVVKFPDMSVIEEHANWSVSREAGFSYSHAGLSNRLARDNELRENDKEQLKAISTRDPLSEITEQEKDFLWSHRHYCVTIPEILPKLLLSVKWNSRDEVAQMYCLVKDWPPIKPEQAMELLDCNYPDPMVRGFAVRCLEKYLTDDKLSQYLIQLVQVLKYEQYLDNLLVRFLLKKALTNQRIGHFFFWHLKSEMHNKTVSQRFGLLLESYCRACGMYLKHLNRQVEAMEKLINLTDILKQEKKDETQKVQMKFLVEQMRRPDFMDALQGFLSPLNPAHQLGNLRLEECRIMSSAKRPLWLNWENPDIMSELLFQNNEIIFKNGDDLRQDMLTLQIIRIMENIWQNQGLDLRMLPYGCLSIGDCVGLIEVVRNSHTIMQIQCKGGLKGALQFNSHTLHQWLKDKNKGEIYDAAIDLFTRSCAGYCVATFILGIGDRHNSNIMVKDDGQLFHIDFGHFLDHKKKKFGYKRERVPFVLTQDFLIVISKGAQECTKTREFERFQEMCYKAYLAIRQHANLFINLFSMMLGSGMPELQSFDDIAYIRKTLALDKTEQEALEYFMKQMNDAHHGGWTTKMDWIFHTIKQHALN
Sequence (P27986 whole entry partner, species assumed): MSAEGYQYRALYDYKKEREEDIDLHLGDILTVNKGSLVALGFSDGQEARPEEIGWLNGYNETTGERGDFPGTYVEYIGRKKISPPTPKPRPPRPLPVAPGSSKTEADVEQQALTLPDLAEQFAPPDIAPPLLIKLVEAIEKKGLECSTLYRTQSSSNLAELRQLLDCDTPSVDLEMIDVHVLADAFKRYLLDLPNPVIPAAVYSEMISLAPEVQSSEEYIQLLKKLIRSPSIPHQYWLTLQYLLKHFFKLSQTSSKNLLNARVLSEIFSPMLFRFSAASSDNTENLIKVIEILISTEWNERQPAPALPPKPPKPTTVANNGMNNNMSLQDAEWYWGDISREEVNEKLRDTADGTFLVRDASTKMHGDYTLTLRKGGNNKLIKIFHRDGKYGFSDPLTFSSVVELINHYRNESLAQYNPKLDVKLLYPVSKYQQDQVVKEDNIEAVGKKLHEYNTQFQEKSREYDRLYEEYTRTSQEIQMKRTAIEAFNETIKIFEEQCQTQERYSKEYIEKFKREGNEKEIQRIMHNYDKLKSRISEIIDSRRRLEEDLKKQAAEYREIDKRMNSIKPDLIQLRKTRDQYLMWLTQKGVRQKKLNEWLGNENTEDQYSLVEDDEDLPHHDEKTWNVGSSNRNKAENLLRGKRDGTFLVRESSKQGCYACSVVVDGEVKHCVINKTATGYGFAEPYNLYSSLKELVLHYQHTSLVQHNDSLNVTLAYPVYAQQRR
Experimental Details: PI3Kα inhibitory activity (Ki value)
Type: biochemical
Condition Info: read-out: PI3Kα Ki value
Ki listing for selected compounds.

COc1cc(N2CCc3nc(NC(=O)Nc4ccccc4C(=O)NC(C)C)sc3C2)nc(OC)n1 : > 12 µM
COc1cc(C2(F)CCc3nc(NC(=O)Nc4ccccc4C(=O)NC(C)C)sc3C2)nc(OC)n1 (stereo not drawn) : > 13 µM

Below: the item to evaluate.
*Q* Give its Ki value. Item: Cc1nc(NC(=O)Nc2ccccc2C(=O)NC(C)C)sc1-c1ccc(S(C)(=O)=O)c(F)c1
*A* > 7 µM

----------
Subject Of Test: PI3Kγ (Homo sapiens, UniProt P48736)
Sequence (P48736 whole entry, species assumed): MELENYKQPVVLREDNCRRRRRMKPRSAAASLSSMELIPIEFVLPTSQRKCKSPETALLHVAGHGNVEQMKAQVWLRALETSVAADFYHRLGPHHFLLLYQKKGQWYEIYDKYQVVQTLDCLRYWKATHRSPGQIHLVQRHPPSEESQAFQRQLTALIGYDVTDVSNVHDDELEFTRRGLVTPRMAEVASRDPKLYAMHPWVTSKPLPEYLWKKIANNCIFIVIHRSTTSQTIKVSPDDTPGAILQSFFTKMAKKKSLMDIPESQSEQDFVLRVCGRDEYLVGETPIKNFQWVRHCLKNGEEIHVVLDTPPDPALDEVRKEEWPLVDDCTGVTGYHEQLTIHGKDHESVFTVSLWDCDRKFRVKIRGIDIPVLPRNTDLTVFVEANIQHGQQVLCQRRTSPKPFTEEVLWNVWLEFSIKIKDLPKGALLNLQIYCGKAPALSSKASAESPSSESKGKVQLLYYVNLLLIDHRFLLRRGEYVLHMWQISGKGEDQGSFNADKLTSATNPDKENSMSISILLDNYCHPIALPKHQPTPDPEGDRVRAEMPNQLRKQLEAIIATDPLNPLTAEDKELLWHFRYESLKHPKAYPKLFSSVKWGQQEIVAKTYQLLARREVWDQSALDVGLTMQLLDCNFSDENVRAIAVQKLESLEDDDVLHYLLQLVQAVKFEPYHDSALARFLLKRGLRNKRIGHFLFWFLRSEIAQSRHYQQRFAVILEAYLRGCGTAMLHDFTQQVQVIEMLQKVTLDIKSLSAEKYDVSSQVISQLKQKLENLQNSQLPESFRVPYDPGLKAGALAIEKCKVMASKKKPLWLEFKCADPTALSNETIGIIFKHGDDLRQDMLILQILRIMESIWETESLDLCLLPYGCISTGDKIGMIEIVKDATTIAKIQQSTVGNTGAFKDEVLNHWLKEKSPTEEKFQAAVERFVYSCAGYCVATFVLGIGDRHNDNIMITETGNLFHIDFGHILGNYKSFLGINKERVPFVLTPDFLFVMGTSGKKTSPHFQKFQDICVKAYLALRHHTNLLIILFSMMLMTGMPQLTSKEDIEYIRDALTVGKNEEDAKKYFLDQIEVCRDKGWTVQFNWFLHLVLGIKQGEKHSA
Experimental Details: PI3Kγ inhibitory activity (PI3-kinase HTRF assay, inhibition ratio)
Format: biochemical
Condition Info: 0.5 h, compound at 10 μmol/L; read-out: PI3Kg Inhibition Ratio % (10 μM)
inhibition at 10 µM listing for selected molecules.

Solved entries (count: 2):
COc1nc(Cl)cc(N2CCc3nc(NC(=O)Nc4cnccc4C(=O)NC(C)C)sc3C2)n1 : ≥ 95%
COC(=O)[C@H](CO)NC(=O)c1nn(C)cc1NC(=O)Nc1nc2c(s1)CN(c1cc(OC)nc(OC)n1)CC2 : ≥ 95%

Below: the item to evaluate.
*Q* Give its inhibition at 10 µM value. Item: CC(C)NC(=O)c1nn(C)cc1NC(=O)Nc1nc2c(s1)CN(c1cncc(C#N)c1)CC2
*A* ≥ 95%

----------
Tested on: AKT phosphorylation
Experimental Details: AKT phosphorylation inhibitory activity in MCP-1 stimulated THP-1 cells (sandwich ELISA)
Format: cell-based, Human
Condition Info: Homo sapiens, compound at 1 μmol/L, MCP-1 stimulation, read-out: AKT phosphorylation inhibition ratio
Measured Attribute: inhibition at 1 µM

CNS(=O)(=O)c1cncc(N2CCc3nc(NC(=O)Nc4ccccc4C(=O)NC(C)C)sc3C2)c1 [Compound I-129] : ≥ 95%
COc1cc(N2CCc3nc(NC(=O)Nc4cn(C)nc4C(=O)N[C@@H](C)CO)sc3C2)nc(OC)n1 [Compound I-155] : ≥ 95%

Below: the item to evaluate.
*Q* Give its inhibition at 1 µM value. Item: COC(=O)[C@H](CO)NC(=O)c1nn(C)cc1NC(=O)Nc1nc2c(s1)CN(c1cc(OC)nc(OC)n1)CC2 [Compound I-167]
*A* ≥ 95%

----------
inhibition at 10 min, 1 µM listing for selected compounds.
Subject Of Test: hERG channel (IKr) (Homo sapiens, UniProt Q12809)
Construct: expressed in transfected cells; host or cells: HEK293
Sequence (Q12809 whole entry): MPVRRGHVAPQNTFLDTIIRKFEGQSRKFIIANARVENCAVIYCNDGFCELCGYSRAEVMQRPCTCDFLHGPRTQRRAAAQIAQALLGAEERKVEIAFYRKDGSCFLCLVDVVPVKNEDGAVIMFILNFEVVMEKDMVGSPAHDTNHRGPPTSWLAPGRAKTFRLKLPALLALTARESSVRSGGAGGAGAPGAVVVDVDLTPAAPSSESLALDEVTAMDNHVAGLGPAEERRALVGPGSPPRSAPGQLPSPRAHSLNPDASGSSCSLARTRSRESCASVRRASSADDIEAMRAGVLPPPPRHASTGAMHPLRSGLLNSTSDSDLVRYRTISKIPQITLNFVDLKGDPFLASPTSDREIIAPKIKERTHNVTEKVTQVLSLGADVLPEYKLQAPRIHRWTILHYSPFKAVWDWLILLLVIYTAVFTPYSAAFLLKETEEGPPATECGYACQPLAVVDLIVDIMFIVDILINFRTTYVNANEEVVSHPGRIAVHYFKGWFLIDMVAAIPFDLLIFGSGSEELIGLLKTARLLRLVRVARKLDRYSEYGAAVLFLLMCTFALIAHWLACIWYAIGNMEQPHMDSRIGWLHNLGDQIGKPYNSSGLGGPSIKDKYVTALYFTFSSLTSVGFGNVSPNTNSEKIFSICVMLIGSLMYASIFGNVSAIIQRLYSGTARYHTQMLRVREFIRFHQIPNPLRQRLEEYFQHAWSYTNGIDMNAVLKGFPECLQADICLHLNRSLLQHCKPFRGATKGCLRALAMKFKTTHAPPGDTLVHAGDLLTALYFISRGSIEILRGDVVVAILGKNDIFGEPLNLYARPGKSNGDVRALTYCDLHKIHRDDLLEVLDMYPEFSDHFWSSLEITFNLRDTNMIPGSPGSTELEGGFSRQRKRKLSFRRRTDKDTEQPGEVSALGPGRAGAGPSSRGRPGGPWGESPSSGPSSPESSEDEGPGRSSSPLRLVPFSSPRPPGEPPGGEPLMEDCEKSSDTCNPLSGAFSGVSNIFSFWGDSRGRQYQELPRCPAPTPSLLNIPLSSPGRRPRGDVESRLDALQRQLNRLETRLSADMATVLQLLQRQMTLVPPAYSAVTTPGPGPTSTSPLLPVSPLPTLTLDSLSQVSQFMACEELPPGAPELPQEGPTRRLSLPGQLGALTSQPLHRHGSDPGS
Experimental Details: hERG test (whole-cell patch-clamp, IKr in HEK293 cells)
Type: cell-based
Condition Info: human, HEK293 cells expressing hERG channel, pH 7.4, inhibition of maximum tail current (IKr), compound 1 μM
Excerpt: For the purpose of risk evaluation of QT interval extension of electrocardiogram, the activity on delayed rectification K^+ current (IKr), which plays an important role in a cardiac ventricle repolarization process, was examined using the HEK293 cell that was made to express human ether-a-go-go related gene (hERG) channel. […]
Please respond with the number in % and leave the unit unwritten.

Solved entries (count: 2):
CC(C)NC(=O)c1ccccc1NC(=O)Nc1nc2c(s1)CN(c1cncc(C#N)c1)CC2 [Compound I-188] : 3.9
COc1cc(C2CCc3nc(NC(=O)Nc4ccccc4C(=O)NC(C)C)sc3C2)nc(OC)n1 (stereo not drawn) [Compound I-60] : 3.6

Below: the item to evaluate.
*Q* Give its inhibition at 10 min, 1 µM value. Item: COc1nc(Cl)cc(N2CCc3nc(NC(=O)Nc4ccccc4C(=O)NC(C)C(F)(F)F)sc3C2)n1 (stereo not drawn) [Compound I-176]
*A* 0.4
